Species: Capra hircus
protocol: Induction of magnesium independent calcium-transporting ATPase activity in goat spermatozoa microsomal membranes at 20 ug by spectrophotometry in presence of […] of calcium channel blocker thapsigargin
Format: microsomes
conditionInfo: Microsome
measure: Activity
Note: state the figure and append the unit.

Reference set (3 entries):
INSERT INTO measurements (linenotation, measure, observed) VALUES
  ('CO[C@H]1O[C@H](CS(=O)(=O)C[C@H]2O[C@H](OC)[C@@H](O)[C@@H](O)[C@@H]2O)[C@@H](O)[C@H](O)[C@@H]1O', 'Activity', '-29%'),
  ('CO[C@H]1O[C@H](CS(=O)(=O)C[C@H]2O[C@H](OC)[C@H](O)[C@@H](O)[C@H]2O)[C@@H](O)[C@H](O)[C@H]1O', 'Activity', '-38%'),
  ('CO[C@H]1O[C@H](CS(=O)(=O)C[C@H]2O[C@H](OC)[C@H](O)[C@H](O)[C@@H]2O)[C@@H](O)[C@H](O)[C@H]1O', 'Activity', '-31%');

Request: Give its Activity value. Item: CO[C@H]1O[C@H](CS(=O)(=O)C[C@H]2O[C@@H](OC)[C@H](O)[C@H](O)[C@@H]2O)[C@@H](O)[C@H](O)[C@@H]1O
Result: -27%
